# assay.explanation: Antitumor activity against mouse mammary cancer cell implanted in C3H/An mouse assessed as inhibition of tumor growth at 0.5 mg/day for 14 days
# Type: functional, Cancer cell lines
Kindly state inhibition (INH) for each of the entries shown.
Give bare numbers, in %.

>  <compound>
COc1ccc2c(c1)CC[C@@H]1[C@@H]2CC[C@]2(C)C(=O)C(N3CC3)C[C@@H]12 (some centres undefined)

>  <inhibition (INH) [%]>
17

$$$$
>  <compound>
CC(=O)[C@H]1C(N2CC2)C[C@H]2[C@@H]3CC=C4C[C@@H](O)CC[C@]4(C)[C@H]3CC[C@]12C (some centres undefined)

>  <inhibition (INH) [%]>
61

$$$$
>  <compound>
CC(=O)[C@H]1C(N2CC2)C[C@H]2[C@@H]3CCC4=CC(=O)CC[C@]4(C)[C@H]3CC[C@]12C (some centres undefined)

>  <inhibition (INH) [%]>
55

$$$$

Now consider a different compound.
Input: So what does the record say about inhibition (INH) for CC(=O)O[C@H]1CC[C@@]2(C)C(=CC[C@@H]3[C@@H]2CC[C@]2(C)C(=O)C(CN4CC4)C[C@@H]32)C1 (some centres undefined) ?
Output: 32
